# targetEntity: T1, HER2 expressed on the surface of cells (human, UniProt P04626 23-1255)
# T1 construct: whole, on cells; also called ErbB2
# experiment: flow cytometry on BT474 cells, n=1
observationType: Bmax (MFI)
Field: numeric (MFI). Do not append units.

1) Variant 14022 (antibody, name in Kabat numbering, V domains shown, also called v14022) VH: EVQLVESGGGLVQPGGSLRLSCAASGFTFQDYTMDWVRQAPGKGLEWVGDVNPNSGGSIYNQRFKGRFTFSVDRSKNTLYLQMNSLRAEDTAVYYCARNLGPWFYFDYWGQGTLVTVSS VL: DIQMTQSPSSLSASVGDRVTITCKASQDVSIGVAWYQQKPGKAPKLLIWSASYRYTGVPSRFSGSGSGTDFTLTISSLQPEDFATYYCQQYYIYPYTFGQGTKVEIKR; 23000

In: Data request, read-out Bmax, for Variant 14019 (antibody, name in Kabat numbering, V domains shown, also called v14019) VH: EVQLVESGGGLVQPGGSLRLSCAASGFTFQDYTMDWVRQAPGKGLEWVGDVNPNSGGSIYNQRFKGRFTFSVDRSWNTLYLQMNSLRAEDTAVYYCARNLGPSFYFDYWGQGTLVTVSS VL: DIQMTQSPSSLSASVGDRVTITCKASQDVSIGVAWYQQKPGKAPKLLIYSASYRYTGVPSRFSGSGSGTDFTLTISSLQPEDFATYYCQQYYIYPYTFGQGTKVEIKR
Out: 23000

In: If you can, please state the reported Bmax value of Variant 14018 (antibody, name in Kabat numbering, V domains shown, also called v14018) VH: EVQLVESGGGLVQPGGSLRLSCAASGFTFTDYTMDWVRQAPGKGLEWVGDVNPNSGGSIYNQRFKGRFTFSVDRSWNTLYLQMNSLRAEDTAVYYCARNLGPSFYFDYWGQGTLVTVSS VL: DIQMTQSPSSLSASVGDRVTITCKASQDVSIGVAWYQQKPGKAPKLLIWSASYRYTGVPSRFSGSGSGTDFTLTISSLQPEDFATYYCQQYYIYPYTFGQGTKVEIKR .
Out: 22000

Data origin: patent US20180273635A1
